Documented DC50 across a set of compounds
target: IRAK4 protein in normal human PBMCs (Homo sapiens); construct: host or cells: normal human PBMCs; assay: Degradation of IRAK4 protein in normal human PBMCs (AlphaLISA); assay type: cell-based; settings: 24 h incubation
Remember to quote the unit after the number.

Example results:
Identify DC50 associated with the compound COc1cc2nn([C@H]3CC[C@](O)(CN(C)CC4CCC5(CC4)CCN(C(=O)c4ccc(Cl)c(N6CCC(=O)NC6=O)c4)CC5)CC3)cc2cc1NC(=O)c1cccc(C(F)(F)F)n1 [Example 35]
0.65 nM

Identify DC50 associated with the compound Cc1ccc(C(=O)N2CCC3(CCC(CN4CCC(n5cc(NC(=O)c6cnn7ccc(N8CCOCC8)nc67)c(C(F)F)n5)CC4)CC3)CC2)cc1N1CCC(=O)NC1=O [Example 13]
0.21 nM

Identify DC50 associated with the compound COc1ccc(C(=O)N2CCC3(CCC(CN4CCC(n5cc(NC(=O)c6cnn7ccc(N8C[C@H]9C[C@@H]8CO9)nc67)c(C(F)F)n5)CC4)CC3)CC2)cc1N1CCC(=O)NC1=O [Example 3]
0.28 nM

Further cases:
Identify DC50 associated with the compound O=C1CCN(c2cc(C(=O)N3CCC4(CCN(C[C@H]5CC[C@H](n6cc(NC(=O)c7cnn8ccc(N9CCOCC9)nc78)c(C(F)F)n6)CC5)CC4)CC3)ccc2Cl)C(=O)N1 [Example 8]
0.8 nM

Identify DC50 associated with the compound O=C1CCN(c2cc(C(=O)N3CCC4(CCN(C[C@H]5CC[C@H](n6cc(NC(=O)c7cnn8ccc(N9CC%10CCC(C9)O%10)nc78)c(C(F)F)n6)CC5)CC4)CC3)ccc2Cl)C(=O)N1 [Example 11]
0.88 nM

Identify DC50 associated with the compound O=C1CCN(c2cc(C(=O)N3CCC4(CCC(CN5CCC(n6cc(NC(=O)c7cnn8ccc(N9CCNCC9)nc78)c(C(F)F)n6)CC5)CC4)CC3)ccc2Cl)C(=O)N1 [Example 5]
0.6 nM

Identify DC50 associated with the compound O=C1CCN(c2cc(C(=O)N3CCC4(CCN(C[C@H]5CC[C@H](n6cc(NC(=O)c7cnn8ccc(N9CC%10(COC%10)C9)nc78)c(C(F)F)n6)CC5)CC4)CC3)ccc2Cl)C(=O)N1 [Example 19]
0.47 nM

Identify DC50 associated with the compound COc1ccc(C(=O)N2CCC3(CCC(CN4CCC(n5cc(NC(=O)c6cnn7ccc(N8CC9CCC(C8)O9)nc67)c(C(F)F)n5)CC4)CC3)CC2)cc1N1CCC(=O)NC1=O [Example 6]
0.56 nM

* * *

Documented Dmax across a set of compounds
target: IRAK4 protein in normal human PBMCs (Homo sapiens, UniProt Q9NWZ3); construct: host or cells: normal human PBMCs; assay: Degradation of IRAK4 protein in normal human PBMCs (AlphaLISA); assay type: cell-based; details: 24 h incubation
Sequence (Q9NWZ3 whole entry): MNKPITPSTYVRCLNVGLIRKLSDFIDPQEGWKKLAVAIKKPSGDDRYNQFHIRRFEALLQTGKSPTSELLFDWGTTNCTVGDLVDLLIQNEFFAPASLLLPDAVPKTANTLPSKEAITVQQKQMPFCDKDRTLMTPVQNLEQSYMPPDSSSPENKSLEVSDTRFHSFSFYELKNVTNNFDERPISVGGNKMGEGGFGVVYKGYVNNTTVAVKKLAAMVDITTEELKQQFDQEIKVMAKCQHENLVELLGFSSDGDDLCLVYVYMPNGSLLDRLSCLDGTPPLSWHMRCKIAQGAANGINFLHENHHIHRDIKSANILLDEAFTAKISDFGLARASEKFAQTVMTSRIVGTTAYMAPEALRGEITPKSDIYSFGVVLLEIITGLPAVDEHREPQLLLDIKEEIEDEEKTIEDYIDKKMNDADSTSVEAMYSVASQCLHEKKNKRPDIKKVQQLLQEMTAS
Report as a plain number; the unit % is understood.

Example results:
Identify Dmax associated with the compound COc1ccc(C(=O)N2CCC(CCN(C)C[C@H]3CC[C@H](n4cc(NC(=O)c5cnn6ccc(N7CC8(COC8)C7)nc56)c(C(F)F)n4)CC3)CC2)cc1N1CCC(=O)NC1=O [Example 32]
98.1

Identify Dmax associated with the compound COc1cc2nn([C@H]3CC[C@](O)(COCCC4CCN(C(=O)c5ccc(Cl)c(N6CCC(=O)NC6=O)c5)CC4)CC3)cc2cc1NC(=O)c1cccc(C(F)(F)F)n1 [Example 34]
99.1

Identify Dmax associated with the compound Cc1ccc(C(=O)N2CCC3(CCN(C[C@H]4CC[C@H](n5cc(NC(=O)c6cnn7ccc(N8CCC[C@H](O)C8)nc67)c(C(F)F)n5)CC4)CC3)CC2)cc1N1CCC(=O)NC1=O [Example 27]
97.8

Further cases:
Identify Dmax associated with the compound COc1ccc(C(=O)N2CCC(CCN(C)C[C@H]3CC[C@H](n4cc(NC(=O)c5cnn6ccc(N7CCC[C@H](N)C7)nc56)c(C(F)F)n4)CC3)CC2)cc1N1CCC(=O)NC1=O [Example 15]
98.8

Identify Dmax associated with the compound N[C@H]1CCCN(c2ccn3ncc(C(=O)Nc4cn(C5CCN(CC6CCC7(CC6)CCN(C(=O)c6ccc(Cl)c(N8CCC(=O)NC8=O)c6)CC7)CC5)nc4C(F)F)c3n2)C1 [Example 30]
100

Identify Dmax associated with the compound Cc1ccc(C(=O)N2CCC3(CCC(CN4CCC(n5cc(NC(=O)c6cnn7ccc(N8CCS(=O)(=O)CC8)nc67)c(C(F)F)n5)CC4)CC3)CC2)cc1N1CCC(=O)NC1=O [Example 22]
98.1

* * *

Documented DC50 across a set of compounds
target: IRAK4 protein in normal human PBMCs (Homo sapiens, UniProt Q9NWZ3); construct: host or cells: normal human PBMCs; experiment: Degradation of IRAK4 protein in normal human PBMCs (AlphaLISA); assay type: cell-based; details: 24 h incubation
Report as a plain number; the unit pM is understood.

Identify DC50 associated with the compound O=C1CCN(c2cc(C(=O)N3CCC(CCCCN4CCC(n5cc(NC(=O)c6cnn7ccc(N8C[C@H]9C[C@@H]8CO9)nc67)c(C(F)F)n5)CC4)CC3)ccc2Cl)C(=O)N1
390

Identify DC50 associated with the compound Cc1ccc(C(=O)N2CCC3(CCC(CN4CCC(n5cc(NC(=O)c6cnn7ccc(N8CCC[C@H](O)C8)nc67)c(C(F)F)n5)CC4)CC3)CC2)cc1N1CCC(=O)NC1=O
320

Now let's try a different one.
Identify DC50 associated with the compound CN(CCC1CCN(C(=O)c2ccc(F)c(C3CCC(=O)NC3=O)c2)CC1)C(=O)[C@H]1CC[C@H](n2cc(NC(=O)c3cnn4ccc(N5CCOCC5)nc34)c(C(F)F)n2)CC1 (stereo partly drawn)
920

* * *

biological target: IRAK4 protein in normal human PBMCs (Homo sapiens, UniProt Q9NWZ3); construct: host or cells: normal human PBMCs; assay: Degradation of IRAK4 protein in normal human PBMCs (AlphaLISA); type: cell-based; details: 24 h incubation
readout.name: Dmax (%)
Report as a plain number; the unit % is understood.

Look up and report Dmax, with IRAK4 protein in normal human PBMCs (Homo sapiens, UniProt Q9NWZ3) as system, for O=C1CCN(c2cc(C(=O)N3CCC4(CCN(C[C@H]5CC[C@H](n6cc(NC(=O)c7cnn8ccc(N9C[C@H]%10C[C@@H]9CO%10)nc78)c(C(F)F)n6)CC5)CC4)CC3)ccc2Cl)C(=O)N1 [Example 2]
99.1

Look up and report Dmax, with IRAK4 protein in normal human PBMCs (Homo sapiens, UniProt Q9NWZ3) as system, for O=C1CCN(c2cc(C(=O)N3CCC4(CCC(CN5CCC(n6cc(NC(=O)c7cnn8ccc(N9CCOCC9)nc78)c(C(F)F)n6)CC5)CC4)CC3)ccc2Cl)C(=O)N1 [Example 4]
97.2

Look up and report Dmax, with IRAK4 protein in normal human PBMCs (Homo sapiens, UniProt Q9NWZ3) as system, for Cc1ccc(C(=O)N2CCC3(CCC(CN4CCC(n5cc(NC(=O)c6cnn7ccc(N8CCC[C@H](N)C8)nc67)c(C(F)F)n5)CC4)CC3)CC2)cc1N1CCC(=O)NC1=O [Example 23]
99

Look up and report Dmax, with IRAK4 protein in normal human PBMCs (Homo sapiens, UniProt Q9NWZ3) as system, for COc1cc2nn([C@H]3CC[C@](O)(COCC4CCN(C(=O)c5ccc(Cl)c(N6CCC(=O)NC6=O)c5)CC4)CC3)cc2cc1NC(=O)c1cccc(C(F)(F)F)n1 [Example 33]
98.6

Look up and report Dmax, with IRAK4 protein in normal human PBMCs (Homo sapiens, UniProt Q9NWZ3) as system, for Cc1ccc(C(=O)N2CCC3(CCC(CN4CCC(n5cc(NC(=O)c6cnn7ccc(N8C[C@H]9C[C@@H]8CO9)nc67)c(C(F)F)n5)CC4)CC3)CC2)cc1N1CCC(=O)NC1=O [Example 21]
96.2

Look up and report Dmax, with IRAK4 protein in normal human PBMCs (Homo sapiens, UniProt Q9NWZ3) as system, for CN(CCC1CCN(C(=O)c2ccc(F)c(C3CCC(=O)NC3=O)c2)CC1)C(=O)[C@H]1CC[C@H](n2cc(NC(=O)c3cnn4ccc(N5CCOCC5)nc34)c(C(F)F)n2)CC1 (some centres unmarked) [Example 17]
98.9

Look up and report Dmax, with IRAK4 protein in normal human PBMCs (Homo sapiens, UniProt Q9NWZ3) as system, for O=C1CCN(c2cc(C(=O)N3CCC4(CCC(CN5CCC(n6cc(NC(=O)c7cnn8ccc(N9CCNCC9)nc78)c(C(F)F)n6)CC5)CC4)CC3)ccc2Cl)C(=O)N1 [Example 5]
98.8

Further cases:
Look up and report Dmax, with IRAK4 protein in normal human PBMCs (Homo sapiens, UniProt Q9NWZ3) as system, for O=C1CCN(c2cc(C(=O)N3CCC4(CCC(CN5CCC(n6cc(NC(=O)c7cnn8ccc(N9CCC[C@H](O)C9)nc78)c(C(F)F)n6)CC5)CC4)CC3)ccc2Cl)C(=O)N1 [Example 26]
97.8

Ref: patent US20260174878A1
